Source listed as PubChem BioAssay AID1159580.

- test summary: chemical genetic growth profiling, strain panel (AID 1159580);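 also: tested at 20 µM; growth read once vehicle control cultures reached saturation at 30 °C; 1 = growth at the plate median or of vehicle wells; lower values mean less growth of the strain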
- test conditions: S. cerevisiae deletion strains, growth OD, locus YML120C, strain ndi1, hits give low values
About 2,000 (36%) of roughly 5,500 compounds were called active. Roughly 18% stayed inconclusive and do not appear here. This is one part of the list.

| compound | normalized growth |
| --- | --- |
| O=c1c(O)c(-c2ccc(O)c(O)c2)oc2c(O)c(O)cc(O)c12 | 1 |
| CC(C)(C)NCC(O)c1cc(O)cc(O)c1 (stereo not drawn) | 0.967 |
| CCc1cc(C(N)=S)ccn1 | 1.02 |

====

Reported normalized growth values for a set of molecules
- test summary: chemical genetic growth profiling, strain panel (AID 1159580)
- test conditions: S. cerevisiae deletion strains, growth OD, locus YLR357W, strain rsc2, hits give low values
Out of some 5,500 compounds screened, about 2,000 (36%) were called active. Roughly 18% stayed inconclusive and do not appear here. Some of the results follow.

| molecule | normalized growth |
| --- | --- |
| CC(C)c1c(O)c(-c2cc3c(c(C(C)C)c2O)CCC2C(C)(C)CCC[C@]32C)cc2c1CCC1C(C)(C)CCC[C@]21C (some centres undefined) | 0.976 |
| NS(=O)(=O)c1cc(C2(O)NC(=O)c3ccccc32)ccc1Cl (centres undefined) | 1 |
| CCCCCC(=O)Cc1cc(O)cc(O)c1C(=O)Oc1cc(CC(=O)CCCCC)c(C(=O)O)c(OC)c1 | 0.866 |
| COC(=O)c1c(C)cc(OC)cc1O | 0.983 |
| CCCCCCCCCCCC1=C(O)C(=O)C=C(O)C1=O | 0.441 |
| CCOC(=O)c1c(C)cc(O)cc1O | 0.909 |
| C[C@]12C=CC(=O)C=C1CCC1C2[C@@H](O)C[C@@]2(C)C1CC[C@]2(O)C(=O)COP(=O)(O)O (some centres undefined) | 0.983 |
| CCN[C@@H]1C[C@H](N)[C@@H](O[C@H]2OC(CN)=CC[C@H]2N)[C@H](O)[C@H]1OC1OC[C@](C)(O)[C@H](NC)[C@H]1O (some centres undefined) | 0.986 |
| C[C@@H]1O[C@@H](OC[C@H]2OC(Oc3c(-c4ccc(OCCO)c(OCCO)c4)oc4cc(OCCO)cc(O)c4c3=O)[C@H](O)[C@@H](O)[C@@H]2O)[C@H](O)[C@H](O)[C@H]1O (some centres undefined) | 0.947 |
| Cc1cc(C2CCCCC2)n(O)c(=O)c1 | 0.133 |
| OC1CC2CCCC(C1)N2Cc1ccccc1 (centres undefined) | 0.959 |
| CC(=O)OCC1=C(C(=O)O)N2C(=O)[C@@H](NC(=O)Cc3cccs3)[C@H]2SC1 | 0.991 |
| O=C(O)C1=C[C@@H](O)[C@@H](O)[C@H](O)C1 | 0.973 |
| COC1=CC(=O)C(C(=O)c2ccccc2)=CC1=O | 0.946 |
| NC(=NCCC[C@H](N)C(=O)O)N[N+](=O)[O-] | 1.06 |
| CCC(=O)c1c(O)cc(O)cc1O | 0.968 |
| COc1ccc(Cl)cc1C(=O)NCCc1ccc(S(=O)(=O)NC(=O)NC2CCCCC2)cc1 | 0.998 |
| COc1ccc2c(c1)CCC1C2CC[C@@]2(C)C1CC[C@@H]2O (some centres undefined) | 0.852 |
| CCc1cc(C(N)=S)ccn1 | 0.99 |

====

- test summary: chemical genetic growth profiling, strain panel (AID 1159580)
- test conditions: S. cerevisiae deletion strains, growth OD, locus YOR144C, strain elg1, hits give low values
The campaign covered roughly 5,500 compounds. About 2,000 (36%) were called active. Inconclusive results (about 18%) are left out. Some of the results follow.
Reported normalized growth values for a set of molecules
assay endpoint: normalized growth

| molecule | observed |
| --- | --- |
| O=C(O)C1=C[C@@H](O)[C@@H](O)[C@H](O)C1 | 1 |
| CCCCCCCCCCCC1=C(O)C(=O)C=C(O)C1=O | 0.877 |
| Cc1[nH]ccc2c1[nH]c1cc(=O)ccc12 | 0.983 |
| CCCCCc1c2c(cc(O)c1C(=O)O)OC(=O)c1c(cc(OC)cc1C(=O)CCCC)O2 | 0.983 |
| C[C@@H]1CC[C@@]2(OC1)OC1CC3C4CC=C5C[C@@H](O)CC[C@]5(C)C4CC[C@]3(C)C1[C@@H]2C (some centres not stated) | 0.99 |
| COc1cccc2c(C)cc(=O)[nH]c12 | 0.964 |
| CCc1cccc(CC)c1N(COC)C(=O)CCl | 1.02 |

====

- test summary: chemical genetic growth profiling, strain panel (AID 1159580);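 also: tested at 20 µM; growth read once vehicle control cultures reached saturation at 30 °C; 1 = growth at the plate median or of vehicle wells; lower values mean less growth of the strain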
- test conditions: S. cerevisiae deletion strains, growth OD, locus YJR066W, strain TOR1, hits give low values
About 2,000 (36%) of roughly 5,500 compounds were called active. Roughly 18% stayed inconclusive and do not appear here. The list shows a part of the results.

| molecule | normalized growth |
| --- | --- |
| CC(CC(C(N)=O)(c1ccccc1)c1ccccc1)N(C)C (stereo unspecified) | 0.969 |
| CC[n+]1c(-c2ccccc2)c2cc(N)ccc2c2ccc(N)cc21 | 0.773 |
| CC(N)C12CC3CC(CC(C3)C1)C2 (stereo unspecified) | 0.935 |
| O=C1Nc2ccccc2/C1=C\c1ccc(Cl)cc1 | 0.781 |
| COc1ccc(-c2cc(=O)c3c(O)cc(O[C@@H]4O[C@H](CO[C@H]5O[C@H](C)[C@@H](O)[C@H](O)[C@@H]5O)[C@@H](O)[C@H](O)[C@H]4O)cc3o2)cc1O | 0.981 |
| Cc1[nH]ccc2c1[nH]c1cc(=O)ccc12 | 0.947 |
| C[C@@H]1O[C@@H](OC[C@H]2OC(Oc3c(-c4ccc(O)c(O)c4)oc4cc(O)cc(O)c4c3=O)[C@H](O)[C@@H](O)[C@@H]2O)[C@H](O)[C@H](O)[C@H]1O (stereo partly specified) | 1 |
| NC(=O)c1ncn([C@@H]2O[C@H](CO)[C@@H](O)[C@H]2O)n1 | 0.959 |
| OCC(O)C(O)C(O)C(O)C(O)CO (stereo unspecified) | 0.927 |
| c1ccc(-c2nnc(-c3ccccn3)nc2-c2ccccc2)cc1 | 0.565 |
| Oc1c(Br)cc(Br)cc1/C=N\n1cnnc1 | 0.287 |
| Oc1c(Br)cc(Br)cc1C=Nc1ccccn1 | 0.141 |
| Cc1cc(Oc2ccc(C(F)(F)F)cc2NS(C)(=O)=O)cc(C)c1Cl | 1.01 |
| CC(C)N(CCC(C(N)=O)(c1ccccc1)c1ccccn1)C(C)C (stereo unspecified) | 0.994 |
| FC(F)(F)c1cccc(NC(=S)NN=C2CCCCCC2)c1 | 0.907 |
| O=C1Nc2ccccc2/C1=C/c1ccc(C(F)(F)F)cc1Cl | 0.899 |

====

- test summary: chemical genetic growth profiling, strain panel (AID 1159580);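 also: tested at 20 µM; growth read once vehicle control cultures reached saturation at 30 °C; 1 = growth at the plate median or of vehicle wells; lower values mean less growth of the strain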
- test conditions: S. cerevisiae deletion strains, growth OD, locus YHR142W, strain chs7
Among all 5,500 compounds or so, about 2,000 (36%) were called active. About 18% were inconclusive and are not listed. Rule as the data show it: active = normalized growth mostly below about 0.91 (no sharp cut-off); inconclusive = no clear call, values can overlap the other calls; inactive = mostly above about 0.92. The list shows a part of the results.
Possible outcomes: active, inactive

| compound | assigned class |
| --- | --- |
| COc1cc(OC)c2c(=O)c(OC)c(-c3ccc(OC)c(OC)c3)oc2c1 | inactive |
| CCN[C@@H]1C[C@H](N)[C@@H](O[C@H]2OC(CN)=CC[C@H]2N)[C@H](O)[C@H]1OC1OC[C@](C)(O)[C@H](NC)[C@H]1O (some centres undefined) | inactive |
| Oc1ccc2c(c1)OCC1(O)Cc3cc(O)c(O)cc3C21 (centres undefined) | inactive |
| CC(C)(C)NCC(O)c1cc(O)cc(O)c1 (centres undefined) | inactive |
| CC(CC(C(N)=O)(c1ccccc1)c1ccccc1)N(C)C (centres undefined) | inactive |
| CC(C)(C)NCC(O)c1cc(Cl)c(N)c(Cl)c1 (centres undefined) | inactive |
| O=c1cc(-c2ccc(O)cc2)oc2cc(O[C@@H]3O[C@H](CO)[C@@H](O)[C@H](O)[C@H]3O)cc(O)c12 | inactive |
| O=c1c(O)c(-c2ccc(O)c(O)c2)oc2cc(O)cc(O)c12 | active |
| C[C@]12C=CC(=O)C=C1CCC1C2[C@@H](O)C[C@@]2(C)C1CC[C@]2(O)C(=O)COP(=O)(O)O (some centres undefined) | inactive |

====

Reported normalized growth values for a set of molecules
- test summary: chemical genetic growth profiling, strain panel (AID 1159580);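 also: tested at 20 µM; growth read once vehicle control cultures reached saturation at 30 °C; 1 = growth at the plate median or of vehicle wells; lower values mean less growth of the strain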
- test conditions: S. cerevisiae deletion strains, growth OD, locus YLR102C, strain apc9, hits give low values
The campaign covered roughly 5,500 compounds. About 2,000 (36%) were called active. Not shown: some 18% with an inconclusive outcome. The list shows a part of the results.
assay endpoint: normalized growth

| molecule | observed |
| --- | --- |
| COc1ccc2c(c1)CCC1C2CC[C@@]2(C)C1CC[C@@H]2O (some centres not stated) | 0.951 (inactive) |
| CC(C)C1COc2cc3oc(=O)ccc3cc2O1 (configuration not stated) | 0.887 (active) |
| CC(C)c1c(O)c(-c2cc3c(c(C(C)C)c2O)CCC2C(C)(C)CCC[C@]32C)cc2c1CCC1C(C)(C)CCC[C@]21C (some centres not stated) | 1.02 (inactive) |
| C[C@@H]1CC[C@@]2(OC1)OC1CC3C4CC=C5C[C@@H](O)CC[C@]5(C)C4CC[C@]3(C)C1[C@@H]2C (some centres not stated) | 0.986 (inactive) |
| CC1CC[C@@]2(OC1)O[C@H]1CC3C4CC[C@@H]5C[C@@H](O)CC[C@]5(C)C4CC[C@]3(C)[C@H]1[C@@H]2C (some centres not stated) | 1.01 (inactive) |
| C[C@@H]1CC[C@@]2(OC1)O[C@H]1CC3C4CC[C@H]5C[C@@H](O)CC[C@]5(C)C4CC[C@]3(C)[C@H]1[C@@H]2C (some centres not stated) | 0.977 (inactive) |
| C=C(C)[C@H]1COc2cc3oc(=O)ccc3cc2O1 | 0.863 (active) |
